Answer each item with its documented pIC50.
Biological target: KRAS G12D (Homo sapiens (Human), UniProt P01116, G12D)
Sequence (P01116-2 other isoform, or with tags, fused parts or gaps G12D): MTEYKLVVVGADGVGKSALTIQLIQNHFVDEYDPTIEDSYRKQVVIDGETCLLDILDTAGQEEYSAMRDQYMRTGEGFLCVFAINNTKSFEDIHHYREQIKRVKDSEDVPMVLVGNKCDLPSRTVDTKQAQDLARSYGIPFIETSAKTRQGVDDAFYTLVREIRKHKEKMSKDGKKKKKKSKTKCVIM
Assay: KRAS G12D LoEnz Biochemical Assay, BODIPY-GDP Exchange TR-FRET (SOS1-mediated nucleotide exchange)
Settings: read-out: KRas (G12D) GDP HTRF IC50
# pIC50 = -log10(concentration in molar units)

State the recorded pIC50 for this entry: C[C@@H]1Oc2nc(-c3cc(N)c(F)cc3C(F)(F)F)c(F)c3nc(OC[C@]45CCN4CC(F)(F)C5)nc(c23)N2C[C@H]3CC[C@H](N3)[C@@H]12
8.45

State the recorded pIC50 for this entry: CCc1cccc2cc(O)cc(-c3nc4c5c(nc(OC[C@@]67CCCN6C[C@H](F)C7)nc5c3F)N3C[C@H]5CC[C@H](N5)[C@H]3CO4)c12
10.22

State the recorded pIC50 for this entry: C#Cc1cccc2cc(O)cc(-c3nc4c5c(ncnc5c3F)N3C[C@H]5CC[C@H](N5)[C@H]3[C@H](C)O4)c12
7.75

State the recorded pIC50 for this entry: Cc1cc(N)c(F)c(-c2nc3c4c(ncnc4c2Cl)N2C[C@H]4CC[C@H](N4)[C@H]2[C@H](C)O3)c1C(F)(F)F (single isomer, unassigned) [Compound 94]
5.64

State the recorded pIC50 for this entry: Cc1nc(N)cc(-c2nc3c4c(nc(OCC56CCN5CC(F)(F)C6)nc4c2F)N2C[C@H]4CC[C@H](N4)[C@H]2[C@H](C)O3)c1C(F)(F)F (some centres unmarked)
9.38

State the recorded pIC50 for this entry: Cc1cc(N)c(F)c(-c2nc3c4c(nc(OC[C@@]56CCCN5C[C@H](F)C6)nc4c2F)N2C[C@H]4CC[C@H](N4)[C@H]2[C@H](C)O3)c1C(F)(F)F
9.63

State the recorded pIC50 for this entry: Cc1c(F)c(N)cc(-c2nc3c4c(nc(OC[C@]5(CN6CC7(COC7)C6)CC5(F)F)nc4c2F)N2C[C@H]4CC[C@H](N4)[C@H]2[C@H](C(F)(F)F)O3)c1C(F)(F)F (stereo in doubt) [255 b]
9.57

State the recorded pIC50 for this entry: Cc1nc(N)cc(-c2nc3c4c(nc(OCC5(CN6CC(C(F)F)C6)CC5)nc4c2F)N2C[C@H]4CC[C@H](N4)[C@H]2[C@H](C)O3)c1C(F)(F)F
9.47

State the recorded pIC50 for this entry: Cc1cc(N)cc(-c2nc3c4c(nc(OC[C@@]56CCCN5C[C@H](F)C6)nc4c2F)N2C[C@H]4CC[C@H](N4)[C@H]2[C@H](C)O3)c1Cl
9.48

State the recorded pIC50 for this entry: C[C@@H]1Oc2nc(-c3nc(N)cc4ccccc34)c(F)c3nc(OC[C@@]45CCCN4C[C@H](F)C5)nc(c23)N2C[C@H]3CC[C@H](N3)[C@@H]12
8.20

State the recorded pIC50 for this entry: Cc1nc(N)cc(-c2nc3c4c(nc(OCC5(CN6CC7CCC6CO7)CC5)nc4c2F)N2C[C@H]4CC[C@H](N4)[C@H]2[C@H](C)O3)c1C(F)(F)F
9.68
